The origin of these recorded values is PubChem BioAssay AID179.

Tested on: CEM cells HIV-1 protection, formazan growth assay
Assay: NCI AIDS Antiviral Assay;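 active means compounds giving half or more protection of infected cells from virus-caused growth loss, again on retest; inactive means the rest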
Can you answer with just one of these options? 1 for active, 0 for inactive

Use the examples below as a reference point.
| Compound | Class |
| --- | --- |
| CCOC(=O)[C@@H]1ON2OC(OC3CCCC3(c3ccccc3)c3ccccc3)C(OC(C)=O)[C@H]3OC(=O)[C@@H]1C32 (some centres undefined) | 0 |
| CCOc1c(Cc2ccccc2)c(=O)n2c3ccccc3n3c(=O)n(C)c(=O)c1c23 | 0 |
| COC(=O)C1=C(C(=O)OC)C23CC1C1C(C(=O)OC)=C(C(=O)OC)C12C1C=CC3C2C(=O)OC(=O)C21 (centres undefined) | 0 |

Ask | Could you kindly confirm the outcome this assay logged for O=C(O)CCCc1cc2c(s1)-c1cccc3cccc-2c13 ?
Reply | 0

Ask | Then CN(C)CC(NC(NCS)C(=O)NCCNc1ccc(NCCNC(=O)C(NCS)NC(CN(C)C)OCCl)c2c1C(=O)c1c(O)ccc(O)c1C2=O)OCCl (centres undefined) ?
Reply | 0

Ask | Then Cc1cc2c3ccccc3n(C)c2c2c1C(=O)c1ccccc1C2=O ?
Reply | 0

Ask | Then Cc1ccc(Nc2nc(NS(=O)(=O)c3cc(C)c(Cl)cc3S)n[nH]2)cc1 ?
Reply | 1

Ask | Then CSc1nc(C)c(Br)c(=O)n1C1OC(COC(C)=O)C(OC(C)=O)C(OC(C)=O)C1OC(C)=O (centres undefined) ?
Reply | 0

Ask | Then Cc1cnoc1NC1=CC(=O)C(=O)c2ccccc21 ?
Reply | 0
